- ASSAY_TARGET: HLA-A*24 (peptide-receptive MHC class I monomer of the UV-ligand exchange assay) (human)
- PROCEDURE_DETAILS: UV-ligand exchange with anti-b2m ELISA
Recorded peptide exchange yield values for a group of binders are listed next.
TEST_READOUT: peptide exchange yield

{"columns": ["BINDER", "TEST_READOUT", "EXPERIMENTAL_VALUE"],
 "data": [
  ["FFPPTRQMGLLF [Peptide SEQ ID NO: 217 (…)]", "peptide exchange yield", "> 75%"],
  ["EYQENFLSF [Peptide SEQ ID NO: 206 (…)]", "peptide exchange yield", "50 to 75%"],
  ["HYPPVQVLF [Peptide SEQ ID NO: 285 (…)]", "peptide exchange yield", "50 to 75%"],
  ["TYTTVPRVAF [Peptide SEQ ID NO: 172 (…)]", "peptide exchange yield", "> 75%"],
  ["TFSVSSHLF [Peptide SEQ ID NO: 222 (…)]", "peptide exchange yield", "50 to 75%"],
  ["WYVNGVNYF [Peptide SEQ ID NO: 189 (…)]", "peptide exchange yield", "20 to 49%"],
  ["RYISDQLFTNF [Peptide SEQ ID NO: 278 (…)]", "peptide exchange yield", "> 75%"],
  ["QYSSVFKSL [Peptide SEQ ID NO: 216 (…)]", "peptide exchange yield", "> 75%"]
]}
